Test system: HeLa cells
Experimental protocol: Evaluation of autophagy by fluorescence microscopy with Cyto-ID autophagy detection kit
Format: cell-based
Details: culture for 1 day, fluorescence intensity same as rapamycin of the kit as reference
Quantity measured: concentration inducing autophagy equal to rapamycin reference (mg/L)

>>> reported("COC(=O)c1cc(C(=O)OC)c2c(n1)C(=O)C(=O)c1cc(C(=O)OC)[nH]c1-2")
0.8
>>> reported("COC(=O)c1cc(C(=O)OC)c2c(n1)C(=O)C(OC)(OC)c1cc(C(=O)OC)[nH]c1-2")
0.8
>>> reported("O=C(O)c1cc(C(=O)O)c2c(n1)c(O)c(O)c1cc(C(=O)O)[nH]c12")
12.5
>>> reported("O=C(O)c1cc(C(=O)O)c2c(n1)C(=O)C(=O)c1cc(C(=O)O)[nH]c1-2")
0.8

* * *

System: HeLa cells
Details: culture for 1 day, determined from the slope, Cell Counting Kit-8
Listed compounds paired with reported 50% cell mortality concentration
Quantity measured: 50% cell mortality concentration (mg/L)

>>> reported("O=C(O)c1cc(C(=O)O)c2c(n1)C(=O)C(=O)c1cc(C(=O)O)[nH]c1-2 [Example 1]")
123
>>> reported("COC(=O)c1cc(C(=O)OC)c2c(n1)C(=O)C(=O)c1cc(C(=O)OC)[nH]c1-2 [Example 2]")
16
>>> reported("C[S+](C)[O-] [comparative example 1, dimethyl sulfoxide, reference compound]")
674
>>> reported("O=C(O)c1cc(C(=O)O)c2c(n1)c(O)c(O)c1cc(C(=O)O)[nH]c12 [Example 3]")
48
